Values were extracted from paper PMC9677429.

Target: T1, IFIT5 WT (UniProt Q13325 1-482)
T1 sequence: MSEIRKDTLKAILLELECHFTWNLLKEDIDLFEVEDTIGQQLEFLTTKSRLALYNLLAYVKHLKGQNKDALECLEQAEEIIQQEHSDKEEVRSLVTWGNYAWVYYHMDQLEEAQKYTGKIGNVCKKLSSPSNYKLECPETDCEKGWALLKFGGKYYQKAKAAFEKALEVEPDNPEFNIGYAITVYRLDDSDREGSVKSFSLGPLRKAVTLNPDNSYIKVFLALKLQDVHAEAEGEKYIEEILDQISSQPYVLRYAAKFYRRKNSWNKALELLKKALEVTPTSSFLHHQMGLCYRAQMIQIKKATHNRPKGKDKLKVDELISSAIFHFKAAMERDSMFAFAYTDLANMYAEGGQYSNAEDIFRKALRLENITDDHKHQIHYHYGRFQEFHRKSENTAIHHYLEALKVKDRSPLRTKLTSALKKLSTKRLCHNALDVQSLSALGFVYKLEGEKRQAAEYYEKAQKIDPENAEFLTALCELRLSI
Experiment: MST; apparent; replicates with and without 1 mM Mg2+ pooled; MST: PBS, 5% glycerol, 0.5 mM TCEP, 0.05% Tween20, +/-1 mM MgCl2 (K150M always with 1 mM MgCl2), 10 nM Cy5-RNA, 22 C, 10 min incubation; pH not stated
Settings: protein: recombinant; tags: N-terminal His tag (pETG10a); label: 3'-Cy5; single strand, 12 nt

# BINDER, UNIT TAG, Kd
measured = [
    ("AAAAAGGAAGGU (ssRNA, 5'-triphosphate) [5'-ppp-AAAAAGGAAGGU-Cy5]", "nM", 13.4),
]
